Tested on: RIVA
Assay: growth inhibition by drug alone (1 - RLU/untreated control) (fraction); higher = stronger inhibition
Settings: 10 nM; time (day): 3; 177Lu-lilotomab satetraxetan 0 ug/ml

# molecule, growth inhibition by drug alone
data = [
    ("CN(C)C/C=C/C(=O)Nc1cc2c(Nc3ccc(F)c(Cl)c3)ncnc2cc1O[C@H]1CCOC1", 0.0532),
    ("C[C@@H](O[C@H]1OCCN(Cc2n[nH]c(=O)[nH]2)[C@H]1c1ccc(F)cc1)c1cc(C(F)(F)F)cc(C(F)(F)F)c1 [Aprepitant (MK-0869)]", -0.223),
    ("Nc1cccc2c1C(=O)N(C1CCC(=O)NC1=O)C2=O (stereo unspecified) [Pomalidomide]", -0.0396),
    ("N#Cc1ccc(COC[C@H]2O[C@@H](n3c(NCc4ccc(Cl)c(Cl)c4)nc4c(N)ncnc43)[C@H](O)[C@@H]2O)cc1", -0.00484),
    ("CNC(=O)c1cc(Oc2ccc(NC(=O)Nc3ccc(Cl)c(C(F)(F)F)c3)cc2)ccn1", -0.0351),
    ("CNC(=O)c1ccc(N2C(=S)N(c3ccc(C#N)c(C(F)(F)F)c3)C(=O)C2(C)C)cc1F [MDV3100 (Enzalutamide)]", 0.0909),
]

----------
System: U-2932
Assay: growth inhibition by drug plus 177Lu-lilotomab satetraxetan (1 - RLU/untreated control) (fraction); higher = stronger inhibition
Details: 1000 nM; time (day): 3; 177Lu-lilotomab satetraxetan 1 ug/ml
Parameter threshold = 0.8. Response is Y when growth inhibition by drug plus 177Lu-lilotomab satetraxetan meets or exceeds it, else N.

# compound, qualitative label
measured = [
    ("O=C1[C@H](CC[C@H](O)c2ccc(F)cc2)[C@@H](c2ccc(O)cc2)N1c1ccc(F)cc1 [Ezetimibe (Zetia)]", "N"),
    ("O=C(Cc1ccc(-c2ccc(OCCN3CCOCC3)cc2)cn1)NCc1ccccc1", "Y"),
    ("C[C@]12CC[C@@H]3c4ccc(O)cc4CC[C@H]3[C@@H]1CCC2=O", "N"),
    ("Cc1csc(-c2nnc(Nc3ccc(Oc4ncccc4-c4ccnc(N)n4)cc3)c3ccccc23)c1", "N"),
]

----------
Tested on: U-2932
Experiment: growth inhibition by drug alone (1 - RLU/untreated control) (fraction); higher = stronger inhibition
Conditions: 10 nM; time (day): 5; 177Lu-lilotomab satetraxetan 0 ug/ml
Collected growth inhibition by drug alone values appear next to each entry.

# compound, growth inhibition by drug alone
records = [
    ("O=NN(CCCl)C(=O)NC1CCCCC1", -0.0761),
    ("CNC(=O)[C@@H](NC(=O)[C@H](CC(C)C)[C@H](O)C(=O)NO)C(C)(C)C", -0.103),
    ("Cn1cnc2c(F)c(Nc3ccc(Br)cc3Cl)c(C(=O)NOCCO)cc21 [AZD6244 (Selumetinib)]", -0.0711),
    ("Nc1nc(Cl)nc2c1ncn2[C@H]1C[C@H](O)[C@@H](CO)O1", -0.0163),
]

----------
Tested on: RIVA
Assay: growth inhibition by drug plus 177Lu-lilotomab satetraxetan (1 - RLU/untreated control) (fraction); higher = stronger inhibition
Settings: 10 nM; time (day): 6; 177Lu-lilotomab satetraxetan 0.5 ug/ml
measurement type: growth inhibition by drug plus 177Lu-lilotomab satetraxetan

# structure smiles, assay system, test value
rows = [
    ("O=C1c2ccccc2C(=O)c2c(NCCc3ccc(O)cc3)ccc(NCCc3ccc(O)cc3)c21", "RIVA", 0.479),
    ("S=C(NCc1ccc2c(c1)OCO2)N1CCN(c2ncnc3c2oc2ccccc23)CC1", "RIVA", 0.68),
    ("O=C(/C=C/C#Cc1cccc(NS(=O)(=O)c2ccccc2)c1)NO", "RIVA", 0.607),
]

----------
System: U-2932
Assay: growth inhibition by drug alone (1 - RLU/untreated control) (fraction); higher = stronger inhibition
Details: 1000 nM; time (day): 5; 177Lu-lilotomab satetraxetan 0 ug/ml
// label = True if growth inhibition by drug alone is not less than -0.01, otherwise False

# compound, qualitative label
records = [
    ("C[C@@H](Oc1cc(-n2cnc3ccc(CN4CCN(C)CC4)cc32)sc1C(N)=O)c1ccccc1C(F)(F)F", "True"),
    ("COc1cc(Nc2ncc(F)c(Nc3ccc4c(n3)N(COP(=O)(O)O)C(=O)C(C)(C)O4)n2)cc(OC)c1OC", "False"),
    ("Cc1ccc(NC(=O)c2ccc(CN3CCN(C)CC3)cc2)cc1Nc1nccc(-c2cccnc2)n1 [Imatinib (Gleevec)]", "False"),
    ("CN(C)Cc1c(C(=O)NCCOc2ccc(C(=O)NO)cc2)oc2ccccc12", "True"),
    ("O=c1[nH]cc(F)c(=O)[nH]1 [Adrucil (Fluorouracil)]", "True"),
    ("c1ccc2c(-c3cnn4cc(-c5ccc(N6CCNCC6)cc5)cnc34)ccnc2c1", "False"),
]

----------
System: U-2932
Experiment: growth inhibition by drug plus 177Lu-lilotomab satetraxetan (1 - RLU/untreated control) (fraction); higher = stronger inhibition
Details: 1000 nM; time (day): 6; 177Lu-lilotomab satetraxetan 1 ug/ml
Measured growth inhibition by drug plus 177Lu-lilotomab satetraxetan, listed per entry.
measurement type: growth inhibition by drug plus 177Lu-lilotomab satetraxetan

# compound, test value
measured = [
    ("CN(C)C/C=C/C(=O)Nc1cc2c(Nc3ccc(F)c(Cl)c3)ncnc2cc1O[C@H]1CCOC1 [Afatinib (BIBW2992)]", 0.121),
    ("CCCS(=O)(=O)Nc1ccc(F)c(C(=O)c2c[nH]c3ncc(-c4ccc(Cl)cc4)cc23)c1F [Vemurafenib (PLX4032)]", 0.06),
    ("CC1(CN2CCC(n3c(=O)[nH]c4ccccc43)CC2)OCc2ccccc2-n2cccc21 (centres undefined)", 0.175),
    ("CN(C)CCCCSC(=N)N", -0.0661),
]

----------
We begin with a simple list: items and their reported growth inhibition by drug alone.
System: RIVA
Assay: growth inhibition by drug alone (1 - RLU/untreated control) (fraction); higher = stronger inhibition
Conditions: 100 nM; time (day): 3; 177Lu-lilotomab satetraxetan 0 ug/ml

# structure smiles, assay system, growth inhibition by drug alone
data = [
    ("CN(C)C[C@@H]1CCn2cc(c3ccccc32)C2=C(C(=O)NC2=O)c2cn(c3ccccc23)CCO1", "RIVA", 0.041),
    ("N#CCNC(=O)c1ccc(-c2ccnc(Nc3ccc(N4CCOCC4)cc3)n2)cc1", "RIVA", -0.378),
    ("N#Cc1c(O)c2c(-c3ccc(-c4ccccc4O)cc3)csc2[nH]c1=O", "RIVA", -0.44),
    ("CN1CCN(c2ccc3nc(-c4c(N)c5c(F)cccc5[nH]c4=O)[nH]c3c2)CC1", "RIVA", -0.156),
]

----------
System: U-2932
Assay: growth inhibition by drug plus 177Lu-lilotomab satetraxetan (1 - RLU/untreated control) (fraction); higher = stronger inhibition
Conditions: 10 nM; time (day): 6; 177Lu-lilotomab satetraxetan 1 ug/ml
Counter-ions that a name gives are not always drawn.
measurement type: growth inhibition by drug plus 177Lu-lilotomab satetraxetan

# compound, test value
rows = [
    ("Cc1[nH]c2ccccc2c1CCNCc1ccc(/C=C/C(=O)NO)cc1", 0.445),
    ("N#CCNC(=O)c1ccc(-c2ccnc(Nc3ccc(N4CCOCC4)cc3)n2)cc1", 0.13),
    ("CO[C@H]1/C=C\\C=C(/C)C(=O)NC2=CC(=O)C(NCCN(C)C)=C(C[C@@H](C)C[C@H](OC)[C@H](O)[C@@H](C)/C=C(\\C)[C@@H]1OC(N)=O)C2=O [17-DMAG HCl (Alvespimycin)]", 0.21),
    ("Nc1nc(OCc2cc(Br)cs2)c2[nH]cnc2n1", 0.114),
    ("CS(=O)(=O)c1cccc(CNc2nc(Nc3ccc4c(c3)CCC(=O)N4)ncc2C(F)(F)F)c1", 0.199),
    ("Cc1cc(Nc2cc(N3CCN(C)CC3)nc(/C=C/c3ccccc3)n2)n[nH]1", -0.0149),
    ("CC(=O)O[C@]1(C(C)=O)CC[C@H]2[C@@H]3C=C(C)C4=CC(=O)CC[C@]4(C)[C@H]3CC[C@@]21C [Megestrol Acetate]", 0.12),
    ("CC(c1cc2ccccc2s1)N(O)C(N)=O (stereo not drawn)", 0.0355),
    ("Cn1c(=O)c(F)c(Nc2ccc(I)cc2F)c2c(=O)n(C[C@@H](O)CO)cnc21", 0.21),
    ("N#CC(c1ccnc(NCCc2cccnc2)n1)c1nc2ccccc2s1 (stereo not drawn)", 0.103),
    ("C[C@H](NC(=O)Cc1cc(F)cc(F)c1)C(=O)N[C@@H]1C(=O)N(C)c2ccccc2-c2ccccc21", -0.0177),
    ("O=c1cc(N2CCOCC2)oc2c(-c3cccc4c3sc3ccccc34)cccc12", 0.2),
    ("COc1ccc(-c2ccc3c(N4CCOCC4)nc(N4C[C@@H](C)O[C@@H](C)C4)nc3n2)cc1CO", 0.161),
]
